assay.text: total protein half-life in vivo (active degradation + dilution); higher = more stable protein
condition.notes: E. coli NCM3722 delta-clpP delta-lon delta-hslV; growth: N-lim chemostat; doubling time 6 h
The entries below are paired with their reported total protein half-life in vivo.

Name the recorded total protein half-life in vivo for MAEIGIFVGTMYGNSLLVAEEAEAILTAQGHKATVFEDPELSDWLPYQDKYVLVVTSTTGQGDLPDSIVPLFQGIKDSLGFQPNLRYGVIALGDSSYVNFCNGGKQFDALLQEQSAQRVGEMLLIDASENPEPETESNPWVEQWGTLLS . 6.12 h

Subsequent entry: MIWKRHLTLDELNATSDNTMVAHLGIVYTRLGDDVLEAEMPVDTRTHQPFGLLHGGASAALAETLGSMAGFMMTRDGQCVVGTELNATHHRPVSEGKVRGVCQPLHLGRQNQSWEIVVFDEQGRRCCTCRLGTAVLG [P0A8Y8] 6.69 h

Subsequent entry: MKKMMIATLAAASVLLAVANQAXAGATLDAVQKKGFVQCGISDGLPGFSYADADGKFSGIDVDICRGVAAAVFGDDTKVKYTPLTAKERFTALQSGEVDLLSRNTTWTSSRDAGMGMAFTGVTYYDGIGFLTHDKAGLKSAKELDGATVCIQAGTDTELNVADYFKANNMKYTPVTFDRSDESAKALESGRCDTLASDQSQLYALRIKLSNPAEWIVLPEVISKEPLGPVVRRGDDEWFSIVRWTLFAMLNAEEMGINSQNVDEKAANPATPDMAHLLGKEGDYGKDLKLDNKWAYNIIKQVGNYSEIFERNVGSESPLKIKRGQNNLWNNGGIQYAPPVR 4.74 h
